- System: NCI-H226 lung
- TEST PROTOCOL: NCI-60 one-dose screen, 48 h
- CONDITION DESCRIPTION: 10 µM unless noted
This is part of a sample that, as a whole, favours compounds with a hit. Of some 83,000 tested, about 20% had one in any assay. Calls of active or inactive are those of the source. Rule for the calls: active = growth percent below 10; inactive = the rest.
Pick one: YES for active, NO for inactive

CC[C@]1(O)C[C@H]2CN(CCc3c([nH]c4ccccc34)[C@@](C(=O)OC)(c3cc4c(cc3OC)N(C=O)[C@H]3[C@@](O)(C(=O)OC)[C@H](OC(C)=O)[C@]5(CC)C=CCN6CC[C@]43[C@@H]65)C2)C1
NO

Prompt: For Cc1cc(N2CCCCC2)nc(N(CCNc2ccnc3cc(Cl)ccc23)Cc2ccccn2)n1 , which call appears in the assay record?
Response: NO

Prompt: For CC(=O)Nc1ccc(C(=O)/C=C/c2ccccc2)cc1 , which call appears in the assay record?
Response: NO

---

- Tested on: MDA-MB-435 melanoma
- TEST PROTOCOL: NCI-60 one-dose screen, 48 h (100 = growth as untreated, 0 = no growth, -100 = all killed)
- CONDITION DESCRIPTION: 10 µM unless noted
- Method: Growth inhibition of the MDA-MB-435 human Melanoma tumor cell line is measured as a screen for anti-cancer activity. Cells are grown in 96 well plates and exposed to the test compound for 48 hours. Compounds are tested at a single concentration, which is 10^-5 M for most compounds. The reported endpoint is percent growth (GI% or GIPRCNT), where numbers from 0 - 100% represent growth inhibition, and numbers from -100% - 0 represent cell death. […]
The panel holds about 83,000 compounds, 20% with a hit somewhere; the sample as a whole holds those more often. Active and inactive are the calls of the source. Rule for the calls: active = growth percent below 10; inactive = the rest.
RESULT TYPE: growth

CCc1nc2ccccc2[nH]1
113% (inactive)

Prompt: Short answer please: growth, MDA-MB-435 melanoma, entry N#C/C=C(\c1ccc([N+](=O)[O-])cc1)n1nnc2cc(Cl)c(Cl)cc21
Response: 7.64% (active)

Prompt: Short answer please: growth, MDA-MB-435 melanoma, entry CCOC(=O)c1c(C)[nH]c(C(=O)CCC(=O)OC)c1C
Response: 103% (inactive)

Prompt: Short answer please: growth, MDA-MB-435 melanoma, entry Cl.Fc1c[c-]c(-c2ccccn2)c(F)c1.[Pt].c1ccc(P(c2ccccc2)C([PH+](c2ccccc2)c2ccccc2)[PH+](c2ccccc2)c2ccccc2)cc1
Response: 12.9% (inactive)

Prompt: Short answer please: growth, MDA-MB-435 melanoma, entry CCNCCNc1cc(C2CCCC2)c(C#N)c2nc3ccccc3n12
Response: 11.2% (inactive)

Prompt: Short answer please: growth, MDA-MB-435 melanoma, entry Cn1ccnc1C(=O)/C=C/c1ccc(C(=O)Nc2ccc(S(F)(F)(F)(F)F)cc2)cc1
Response: 39.2% (inactive)

Prompt: Short answer please: growth, MDA-MB-435 melanoma, entry COc1ccc(OC)c(Nc2nc3nonc3nc2Nc2cc(OC)ccc2OC)c1
Response: 43.1% (inactive)

Prompt: Short answer please: growth, MDA-MB-435 melanoma, entry Nc1c(C(=O)c2ccc(Cl)s2)sc2nc3c(cc12)CCCC3
Response: 119% (inactive)

Prompt: Short answer please: growth, MDA-MB-435 melanoma, entry C=C(CNCCc1ccc(O)cc1)[C@@H]1CC[C@]2(COC3CCCCO3)CC[C@]3(C)[C@H](CC[C@@H]4[C@@]5(C)CCC(N)C(C)(C)[C@@H]5CC[C@]43C)[C@@H]12 (stereo partly specified)
Response: -95% (active)

Prompt: Short answer please: growth, MDA-MB-435 melanoma, entry COc1ccc(CN2C(=O)/C(=C\c3cc(OC)c(OC)c(OC)c3)c3ccccc32)cc1
Response: -10.9% (active)

Prompt: Short answer please: growth, MDA-MB-435 melanoma, entry CCCCNCC(=O)Nc1ccc(C(=O)OCC)cc1
Response: 105% (inactive)

Prompt: Short answer please: growth, MDA-MB-435 melanoma, entry CCCCCCCC/C=C/CCCCCCCC1=NCC[N+]1(CCO)CCO
Response: 65.1% (inactive)

Prompt: Short answer please: growth, MDA-MB-435 melanoma, entry Cc1nc2ccccc2c(/C=C/c2ccc(Cl)cc2)c1C(=O)/C=C/c1ccc(Cl)cc1
Response: -51.4% (active)

Prompt: Short answer please: growth, MDA-MB-435 melanoma, entry CCN(CC)CCCNC(=O)c1ccc(N)cc1O
Response: 117% (inactive)

Prompt: Short answer please: growth, MDA-MB-435 melanoma, entry OC(c1cccc(OCc2ccccc2)c1)c1nnc(-c2ccccc2)o1 (stereo unspecified)
Response: 101% (inactive)

Prompt: Short answer please: growth, MDA-MB-435 melanoma, entry Fc1ccc(Nc2nc3nonc3nc2Nc2ccc(F)cc2)cc1
Response: 5.74% (active)

Prompt: Short answer please: growth, MDA-MB-435 melanoma, entry N#Cc1c(-c2ccc(C(F)(F)F)cc2)cc(N2CC(O)C2)n2c1nc1ccccc12
Response: 83.7% (inactive)

---

- System: UACC-62 melanoma
- TEST PROTOCOL: NCI-60 one-dose screen, 48 h (100 = growth as untreated, 0 = no growth, -100 = all killed)
- CONDITION DESCRIPTION: 10 µM unless noted
- Experimental: Growth inhibition of the UACC-62 human tumor cell line is measured as a screen for anti-cancer activity. Cells are grown in 96 well plates and exposed to the test compound for 48 hours. Compounds are tested at a single concentration, which is 10^-5 M for most compounds. The reported endpoint is percent growth (GI% or GIPRCNT), where numbers from 0 - 100% represent growth inhibition, and numbers from -100% - 0 represent cell death. For example, a value of 40 represents 60% growth inhibition. […]
About 83,000 compounds went through this panel and 20% of them were active in at least one assay; those are over-represented in the sample as a whole.
RESULT TYPE: growth (%)
Hi! Could you send only the number? It should be in %, unit omitted.

Please review the entries below; each comes with its answer.
Cc1cc(N(CCCNc2ccnc3cc(Cl)ccc23)Cc2ccccn2)nc(N2CCCC2)n1
95.1
COC1(CC[C@@H](C)COC2OC(CO)C(O)C(O)C2O)O[C@H]2C[C@H]3[C@@H]4CC=C5C[C@@H](OC6OC(CO)C(OC7OC(C)C(O)C(O)C7O)C(O)C6OC6OC(C)C(O)C(O)C6O)CC[C@]5(C)[C@H]4CC[C@]3(C)[C@H]2[C@@H]1C (some centres undefined)
-92.1
Cc1ccc(NC(=O)C(Cl)Cl)cc1
98.6
CCOc1ccc(S(=O)(=O)c2ccc(C)cc2)c2c1no[n+]2[O-]
78.5
NC(=Nc1ccc(N)cc1)C(N)=Nc1ccc(N)cc1
104

Prompt: Which growth is reported for this compound? O=[N+]([O-])c1ccc(-c2cc3c(Nc4ccc(OCc5cccc(Cl)c5)c(Cl)c4)ncnc3s2)cc1
Response: 78.3

Prompt: Which growth is reported for this compound? CCCCCOC(=O)c1cccc(NC(=O)CN(CC)CC)c1
Response: 103

Prompt: Which growth is reported for this compound? CN1CCN(C(=O)[C@@]2(C)CC[C@]3(C)CC[C@]4(C)C(=CC[C@@H]5[C@@]6(C)C/C(=C/c7ccncc7)C(=O)C(C)(C)[C@@H]6CC[C@]54C)[C@@H]3C2)CC1
Response: 37.8

Prompt: Which growth is reported for this compound? Nc1c(-c2nc3ccc(Br)cc3c(=O)[nH]2)nnn1-c1ccccc1
Response: 93.9

---

- Test system: SN12C renal
- TEST PROTOCOL: NCI-60 one-dose screen, 48 h (100 = growth as untreated, 0 = no growth, -100 = all killed)
- CONDITION DESCRIPTION: 10 µM unless noted
About 83,000 compounds went through this panel and 20% of them were active in at least one assay; those are over-represented in the sample as a whole. Activity calls are given as the source filed them. The calls were made as follows: active = growth percent below 10; inactive = the rest.
This section presents molecules with their documented growth values.

Please review the entries below; each comes with its answer.
COc1cc(-c2cccc([N+](=O)[O-])c2)c(-c2nc(-c3ccccc3)c(-c3ccccc3)n2C2CC2)cc1OC
75.1% (inactive)
CN=C1C=CC(=C(c2ccc(N(C)C)cc2)c2ccc(N(C)C)cc2)C=C1
-32.1% (active)
COc1ccc(-c2cn(-c3cccc(C(=O)/C=C/c4cc(OC)c(OC)c(OC)c4)c3)c(=O)[nH]2)cc1
9.79% (active)
COc1ccc(/C=C(\C#N)n2nnc3cc(F)c(F)cc32)c(OC)c1OC
67% (inactive)

// next entry
Prompt: Which growth is reported for this molecule? N#Cc1cnn2c(-c3ccc(Cl)cc3)nc(NCCc3ccccc3)nc12
Response: 99.6% (inactive)

---

- Test system: CAKI-1 renal
- TEST PROTOCOL: NCI-60 one-dose screen, 48 h (100 = growth as untreated, 0 = no growth, -100 = all killed)
- CONDITION DESCRIPTION: 10 µM unless noted
About 83,000 compounds went through this panel and 20% of them were active in at least one assay; those are over-represented in the sample as a whole.
This section presents molecules with their documented growth values.
Hi! Could you send only the number? It should be in %, unit omitted.

Please review the entries below; each comes with its answer.
CCN(CC)S(=O)(=O)c1ccc(O)c(NC(=O)c2[nH]c(C)c(C(C)=O)c2CCc2ccc(Cl)cc2)c1
56.8
Cc1cc(C(c2ccccc2)c2ccccc2)ccc1NS(=O)(=O)c1ccccc1
89.3
O=C1C2=C(CCN(Cc3ccccc3)C2)N2CCN=C2N1Cc1ccc(F)cc1F
32.9
COc1ccc(-c2cn(-c3cccc(C(=O)/C=C/c4cc(OC)c(OC)c(OC)c4)c3)c(=O)[nH]2)cc1
-12.1
CC(=O)Nc1ccc(-c2cc3c(NCc4ccc(F)cc4)ncnc3s2)cc1
61.6
C=C(Cl)COC(=O)C(C)(C)O
94.6

// next entry
Prompt: Which growth is reported for this molecule? CC(=O)NCC(=O)Nc1ccc(-c2nnc3ccccn23)nc1.CC(=O)NCC(=O)Nc1ccc(-c2nnc3ccccn23)nc1.[Pt+2]
Response: 115
